Assay: Stability of peptides in human plasma
Type: in vitro ADME
Conditions: human, plasma
Where a SMILES comes first, the peptide text is derived from it. [ ]: non-standard residue; d: D form. ξ: configuration not given here. ξαMePhe(2,6-F2) = CC(N)(Cc1c(F)cccc1F)C(=O)O; ξαMePhe(2-F) = CC(N)(Cc1ccccc1F)C(=O)O; hArg = N=C(N)NCCCC[C@H](N)C(=O)O; Nle = CCCC[C@H](N)C(=O)O; ξαMeP = CC1(C(=O)O)CCCN1; Ac5c = NC1(C(=O)O)CCCC1
Measurement Name: half-life

// field: half-life; key: CCCC[C@H](NC(=O)C(C)(Cc1ccccc1F)NC(=O)[C@H](CCC(N)=O)NC(=O)[C@@H](NC(=O)[C@H](CCC(=O)O)NC(=O)C1(NC(=O)[C@@H](NC(=O)C2(N)CCCC2)C(C)C)CCCC1)[C@@H](C)CC)C(=O)N[C@@H](Cc1c[nH]cn1)C(=O)N[C@@H](CCC(N)=O)C(=O)N[C@@H](CCCCNC(=N)N)C(=O)N1CCCC1(C)C(=O)N[C@@H](CCCCN)C(=O)NC(C)(Cc1c(F)cccc1F)C(N)=O (stereo partly shown) [Seq. ID. 100] (H-[Ac5c]V[Ac5c]EIQ[ξαMePhe(2-F)][Nle]HQ[hArg][ξαMeP]K[ξαMePhe(2,6-F2)]-NH2) ; value = > 24 h
